- TEST SYSTEM: HLA-A*0201 (human)
- ASSAY COMMENT: competitive inhibition of 125I-labelled standard peptide binding to purified HLA
- EXPERIMENTAL SETUP: remark: other sources report otherwise
VALUE KIND: pIC50
Just the number, please; pIC50 means minus log10 of the concentration in mol/L.

DLMLLRLSEPV (modifications not checked) [Peptide 63.0109, … (PSA.116.V11)] = 7.30

[ask] If you can, please state the reported pIC50 value of LMLLRLSEPA (modifications not checked) [Peptide 63.0014, … (PSA.117)] .
[reply] 6.70

[ask] Try KVTKFMLCV (modifications not checked) [Peptide 60.0220, … (PSA.187.V9)] next.
[reply] 7.16

[ask] Now this one: VVFLTLSVTWI (modifications not checked) [Peptide 1419.25, … (PSA.1)]
[reply] 6.41

[ask] Quick one: VVFLTLSVTWV (modifications not checked) [Peptide 63.0185, … (PSA.1.V11)]
[reply] 7.05
